These data points were gathered from ChEMBL document CHEMBL2346586.

- assayTarget: Cell division cycle 7-related protein kinase (Homo sapiens)
- Sequence (O00311 whole entry): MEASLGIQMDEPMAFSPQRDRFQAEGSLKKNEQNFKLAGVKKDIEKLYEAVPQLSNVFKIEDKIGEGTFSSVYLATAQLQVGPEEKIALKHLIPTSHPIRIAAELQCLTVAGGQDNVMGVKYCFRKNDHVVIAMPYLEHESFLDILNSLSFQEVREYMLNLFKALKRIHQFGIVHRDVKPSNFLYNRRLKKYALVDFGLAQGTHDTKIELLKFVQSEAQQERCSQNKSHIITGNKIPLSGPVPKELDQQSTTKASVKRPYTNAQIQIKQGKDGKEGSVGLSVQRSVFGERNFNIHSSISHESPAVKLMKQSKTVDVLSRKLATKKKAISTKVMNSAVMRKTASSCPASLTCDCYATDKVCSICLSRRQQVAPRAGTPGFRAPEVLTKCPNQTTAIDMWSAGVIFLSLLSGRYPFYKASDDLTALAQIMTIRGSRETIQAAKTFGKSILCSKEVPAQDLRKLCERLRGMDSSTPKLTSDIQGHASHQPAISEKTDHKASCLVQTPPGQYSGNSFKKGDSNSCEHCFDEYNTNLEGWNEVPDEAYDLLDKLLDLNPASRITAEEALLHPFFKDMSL
- assay: Inhibition of CDC7 in human HCT116 cells assessed as MCM2 phosphorylation
- Format: cell-based, HCT-116
reportedMetric: IC50

{"columns": ["substanceSmiles", "assayTarget", "result"],
 "data": [
  ["Nc1nccc(-n2ccc3cnc(Cl)cc32)n1", "Cell division cycle 7-related protein kinase (Homo sapiens)", "> 50 µM"]
]}

Entry Nc1nccc(-n2ccc3ccccc32)n1 needs its IC50 filled in; supply it.
> 50 µM

Entry Nc1nccc(-n2ccc3cccnc32)n1 needs its IC50 filled in; supply it.
> 50 µM

Entry N#Cc1ccc2ccn(-c3ccnc(N)c3)c2c1 needs its IC50 filled in; supply it.
> 50 µM

====

- assayTarget: Cell division cycle 7-related protein kinase (Homo sapiens)
- assay: Inhibition of CDC7 (unknown origin)
reportedMetric: IC50

{"columns": ["substanceSmiles", "assayTarget", "IC50"],
 "data": [
  ["Nc1nccc(-n2cc(C3=CCOCC3)c3cnccc32)n1", "Cell division cycle 7-related protein kinase (Homo sapiens)", "160 nM"]
]}

Entry N#Cc1ccc2ccn(-c3ccnc(N)n3)c2c1 needs its IC50 filled in; supply it.
75 nM

Entry Nc1nccc(-n2ccc3ccc([N+](=O)[O-])cc32)n1 needs its IC50 filled in; supply it.
82 nM
